A collection of molecules and their measured half-life at 20 μM
# PROCEDURE DETAILS: Stability in simulated intestinal fluid (SIF)
# Assay type: in vitro ADME
# ASSAY SETUP: simulated intestinal fluid with pancreatin, pH 6.8, 37° C., matrix is 100 fold dilution of standard SIF concentration, read-out: SIF t½ (converted)
Bridge positions count the residues as written; N and C are the ends. Square brackets hold non-standard residues; d marks the D form. Peptide text beside a SMILES is read from it. Trp(7-Me) = Cc1cccc2c(C[C@H](N)C(=O)O)c[nH]c12; 2Nal = N[C@@H](Cc1ccc2ccccc2c1)C(=O)O; AEF = NCCOc1ccc(C[C@H](N)C(=O)O)cc1; Pen = CC(C)(S)[C@H](N)C(=O)O; αMeK = C[C@](N)(CCCCN)C(=O)O; Dab = NCC[C@H](N)C(=O)O

Dear colleague, I am looking for the recorded half-life at 20 μM of the following molecule: CC(=O)NCCCC[C@@H]1NC(=O)[C@H](Cc2c[nH]c3c(C)cccc23)NC(=O)[C@H]([C@@H](C)O)NC(=O)[C@H](CC(N)=O)NC(=O)[C@@H](NC(C)=O)C(C)(C)SSC(C)(C)[C@@H](C(=O)N[C@@H](Cc2ccc(OCCN)cc2)C(=O)N[C@@H](Cc2ccc3ccccc3c2)C(=O)N[C@@](C)(CCCCN)C(=O)N[C@@H](CCCCNC(C)=O)C(=O)N[C@@H](CC(N)=O)C(=O)N[C@@H](Cc2c[nH]cn2)C(N)=O)NC1=O [SEQ ID No. 248] 32 h

Find the recorded half-life at 20 μM belonging to CC(=O)NCCCC[C@@H]1NC(=O)[C@H](Cc2c[nH]c3c(C)cccc23)NC(=O)[C@H]([C@@H](C)O)NC(=O)CNC(=O)[C@@H](NC(C)=O)C(C)(C)SSC(C)(C)[C@@H](C(=O)N[C@@H](Cc2ccc(OCCN)cc2)C(=O)N[C@@H](Cc2ccc3ccccc3c2)C(=O)N[C@@](C)(CCCCN)C(=O)N[C@@H](CCCCNC(C)=O)C(=O)N[C@@H](CC(N)=O)C(=O)N[C@H](CC(C)C)C(N)=O)NC1=O [compound 329] (Ac-[Pen]GT[Trp(7-Me)]K(Ac)[Pen][AEF][2Nal][αMeK]K(Ac)N[dL]-NH2; disulfide 1-6) and report it. 12 h

# input molecule: CC(=O)NCCCC[C@@H]1NC(=O)[C@H](Cc2c[nH]c3c(C)cccc23)NC(=O)[C@H]([C@@H](C)O)NC(=O)[C@H](CC(N)=O)NC(=O)[C@@H](NC(C)=O)C(C)(C)SSC(C)(C)[C@@H](C(=O)N[C@@H](Cc2ccc(OCCN)cc2)C(=O)N[C@@H](Cc2ccc3ccccc3c2)C(=O)N[C@@](C)(CCCCN)C(=O)N[C@@H](CCCCNC(C)=O)C(=O)N[C@@H](CC(N)=O)C(=O)N[C@@H](C(N)=O)C(C)C)NC1=O [compound 251] ; wanted: its half-life at 20 μM 20 h

Now, please, on to the next molecule.
# query: half-life at 20 μM of entry CC(=O)NCCCC[C@@H]1NC(=O)[C@H](Cc2c[nH]c3c(C)cccc23)NC(=O)[C@H]([C@@H](C)O)NC(=O)[C@H](CCNC(C)=O)NC(=O)[C@@H](NC(C)=O)C(C)(C)SSC(C)(C)[C@@H](C(=O)N[C@@H](Cc2ccc(OCCN)cc2)C(=O)N[C@@H](Cc2ccc3ccccc3c2)C(=O)N[C@@](C)(CCCCN)C(=O)N[C@@H](CCCCNC(C)=O)C(=O)N[C@@H](CC(N)=O)C(=O)N[C@H](CC(C)C)C(N)=O)NC1=O [compound 335] (Ac-[Pen][Dab](Ac)T[Trp(7-Me)]K(Ac)[Pen][AEF][2Nal][αMeK]K(Ac)N[dL]-NH2; disulfide 1-6) 20 h

Data provenance: patent US11041000B2
